- Tested on: NCI-H226 lung
- PROTOCOL NOTES: NCI-60 one-dose screen, 48 h (100 = growth as untreated, 0 = no growth, -100 = all killed)
- CONDITION NOTES: 10 µM unless noted
Compounds without any hit were thinned out: in the full panel of roughly 83,000, 20% have a hit. Active and inactive are the calls of the source. Rule for the calls: active = growth percent below 10; inactive = the rest.
MEASURED METRIC: growth

- MOLECULE: "Fc1ccc(Nc2nc(Nc3ccc(-c4nc5ccccc5[nH]4)cc3)nc(N3CCCC3)n2)cc1"
  ASSAY TARGET: "NCI-H226 lung"
  growth: "79.9% (inactive)"
- MOLECULE: "COC(=O)[C@]12CC[C@@H](C)[C@H](C)[C@@H]1C1=CC[C@@H]3[C@@]4(C)C[C@@H](O)OC[C@](C)(C=O)C4C(=O)C[C@@]3(C)[C@]1(C)CC2 (some centres undefined)"
  ASSAY TARGET: "NCI-H226 lung"
  growth: "-21.5% (active)"
- MOLECULE: "c1cc(N2CCCC2)c2nc(-c3[nH]ncc3Nc3ncnc4[nH]ccc34)[nH]c2c1"
  ASSAY TARGET: "NCI-H226 lung"
  growth: "-40.4% (active)"
- MOLECULE: "CC1(C)CC[C@]2(C(=O)Nc3ccccn3)CC[C@]3(C)C(=CC[C@@H]4[C@@]5(C)C/C(=C/c6ccncc6)C(=O)C(C)(C)[C@@H]5CC[C@]43C)[C@@H]2C1"
  ASSAY TARGET: "NCI-H226 lung"
  growth: "28.1% (inactive)"
- MOLECULE: "COc1ccc(-c2c(-c3nc4ccc(N5CCOCC5)cc4[nH]3)[nH]c(C)c2C(C)=O)cc1"
  ASSAY TARGET: "NCI-H226 lung"
  growth: "49.7% (inactive)"

Query string: Determine its reported growth: COc1cc2ncnc(Nc3ccc(Oc4ccnc(C)c4)c(C)c3)c2cc1NC(=O)CC1CCSS1 (centres undefined)
Result string: 25.8% (inactive)

Query string: Determine its reported growth: `COc1cc2c(cc1-c1c(C)noc1C)ncc1nc(C3CC3)n([C@H](C)COC(F)F)c12`
Result string: 58.1% (inactive)
